Tested on: NCI-H82 small-cell lung cancer cells
Test details: CellTiter-Glo luminescent cell viability assay, NCI-H82 small-cell lung cancer cells
Assay type: cell-based
Protocol conditions: Homo sapiens, 72 hours
Parameter measured: pIC50
Scale for pIC50: -log10 of concentration given in mol/L; no unit attached.

// lookup pIC50 for C[C@]12CC[C@@H]3c4ccc(O)cc4CC[C@H]3[C@@H]1CC[C@@H]2O 4.79

----------
Tested on: SNU-475 human hepatoma cells
Test details: CellTiter-Glo luminescent cell viability assay, SNU-475 human hepatoma cells
Assay type: cell-based
Protocol conditions: 72 hours
Parameter measured: IC50

Name the reported IC50 value associated with the compound C[C@]12CC[C@@H]3c4ccc(O)cc4CC[C@H]3[C@@H]1CC[C@@H]2O ≥ 100 µM
